Quick reference for pIC50 among some compounds
System: pathway directly downstream of cGAS in cGAMP-stimulated THP1-Dual cells
assay summary: cGAMP stimulated counter cell assay (THP1(cGAMP) IC50): IFN induction in cGAMP-stimulated THP1-Dual cells
Type: cell-based, human
settings: Homo sapiens, THP1-Dual; Table 2; compounds from WO 2020/142729; read-out: THP1(cGAMP) IC50
Experimental: 6.2 Method: Human cGAS Cell Assay and cGAMP Stimulated Counter Cell Assay (THP1(vir) IC50 and THP1(cGAMP) IC50) THP1-Dual™ cells (InvivoGen #thpd-nfis) expressing IRF dependent Lucia luciferase reporter were used as basis for both assays. […] Following that, 15 μL of QuantiLuc detection reagent (InvivoGen #rep-qlcg5) were added to each well using a MultiDrop Combi. Measurement was done immediately after the addition using an EnVision reader (US-luminescence read-mode). […]
pIC50: −log10 of the molar value.

Example entries and their recorded answers appear below.
Cc1nc(N2C[C@@H](CC(=O)Nc3ccncc3)C[C@H]2C(=O)O)c2oc3ccccc3c2n1 [Example 28] ... < 4.77
CC(C)(C(=O)N[C@H]1C[C@@H](C(=O)O)N(c2nc(C(F)(F)F)nc3c2oc2ccccc23)C1)c1cn[nH]c1 [compound 58] ... 4.64

Let us move to another entry and its pIC50.
Enquiry: State pIC50 on pathway directly downstream of cGAS in cGAMP-stimulated THP1-Dual cells. Entry: Cc1nc(N2C[C@@H](Cc3nn[nH]n3)C[C@H]2C(=O)O)c2oc3ccccc3c2n1 [Example 25]
Return: < 4.77

---

system tested: cellular cGAS activity in baculovirus-stimulated THP1-Dual cells (Homo sapiens (Human))
Sequence (Q8N884 whole entry): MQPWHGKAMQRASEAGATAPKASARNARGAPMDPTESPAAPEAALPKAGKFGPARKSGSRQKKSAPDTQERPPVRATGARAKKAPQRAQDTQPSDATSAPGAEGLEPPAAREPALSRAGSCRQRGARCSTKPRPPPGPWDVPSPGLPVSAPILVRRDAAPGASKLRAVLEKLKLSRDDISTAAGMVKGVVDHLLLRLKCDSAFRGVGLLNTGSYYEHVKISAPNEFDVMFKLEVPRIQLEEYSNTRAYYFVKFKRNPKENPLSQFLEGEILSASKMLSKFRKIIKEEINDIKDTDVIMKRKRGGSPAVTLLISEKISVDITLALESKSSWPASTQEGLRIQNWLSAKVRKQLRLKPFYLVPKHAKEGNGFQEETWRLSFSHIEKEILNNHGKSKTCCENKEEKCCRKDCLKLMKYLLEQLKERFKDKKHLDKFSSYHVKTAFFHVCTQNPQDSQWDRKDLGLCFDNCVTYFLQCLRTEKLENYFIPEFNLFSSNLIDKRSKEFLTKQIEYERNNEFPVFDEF
assay summary: Human cGAS cell assay (THP1(vir) IC50): IFN induction in virus-stimulated THP1-Dual cells, IRF Lucia luciferase reporter
Assay type: cell-based
settings: Table 3; Compound No. 5 of WO 2022/174012; read-out: THP1(vir) IC50
pIC50: −log10 of the molar value.
observation type: pIC50

Enquiry: Determine its reported pIC50: Cc1nc(N2C[C@@H](CC(=O)Nc3ccc(-c4ccccc4)cc3)C[C@H]2C(=O)O)c2oc3ccccc3c2n1 [Compound 5 (BBL0100455), reference compound]
Return: < 5.00

---

This section presents molecules with their documented IC50 values.
system tested: Human cGAS enzyme (Homo sapiens (Human), UniProt Q8N884)
Sequence (Q8N884 whole entry): as above
assay summary: Human cGAS enzyme assay (hcGAS IC50, in vitro), cGAMP formation by RapidFire MS;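 note: recombinant human cGAS activated by 45 bp dsDNA with 30 µM each ATP and GTP, 90 min, cGAMP vs cyclic-di-GMP standard by MS, 8-point titration from 10 µM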
Assay type: biochemical
settings: Table 1
State the answer as a number, implicitly in nM.

Some solved cases for reference:
C[C@H]1CN2CC[C@]1(F)c1cc(Cl)cnc1O[C@H]1C[C@@H](C(=O)O)N(C1)c1nc(nc3c1oc1ccccc13)C(F)(F)CCCOCC2=O ... 7
C[C@H]1CN2CC[C@]1(F)c1cc(Cl)cnc1O[C@H]1C[C@@H](C(=O)O)N(C1)c1nc(nc3c1oc1ccccc13)COC(=O)CCC2=O ... 2.8

Now consider the entry below.
Enquiry: Tell me its IC50 given C[C@H]1CN2CC[C@]1(F)c1cc(Cl)cnc1O[C@H]1C[C@@H](C(=O)O)N(C1)c1nc(nc3c1oc1ccccc13)COCCOCC2=O as the entry.
Return: 15

---

system tested: cellular cGAS activity in baculovirus-stimulated THP1-Dual cells (Homo sapiens (Human))
assay summary: Human cGAS cell assay (THP1(vir) IC50): IFN induction in virus-stimulated THP1-Dual cells, IRF Lucia luciferase reporter;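 note: Eight-point dilution series starting at 10 µM, 1% DMSO, 18 h at 37 °C, luminescence read-out, virus-free wells as 0% and DMSO-treated virus-stimulated wells as 100%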
Format: cell-based
settings: Table 1; virus-stimulated THP1 cells; read-out: THP(vir) IC50
pIC50 values for the molecules below.
# pIC50: negative log10 of molar concentration; output just the value

Example cases with answers are listed next.
C[C@H]1CN2CC[C@]1(F)c1cc(Cl)cnc1O[C@H]1C[C@@H](C(=O)O)N(C1)c1nc(nc3c1oc1ccccc13)CCCCOCC2=O ... 7.08
C[C@H]1CN2CC[C@]1(F)c1cc(Cl)cnc1O[C@H]1C[C@@H](C(=O)O)N(C1)c1nc(nc3c1oc1cc(F)ccc13)CCCCOCC2=O ... 7.15

// switching to the query molecule
Enquiry: Please report pIC50 with cellular cGAS activity in baculovirus-stimulated THP1-Dual cells (Homo sapiens (Human)) for item C[C@H]1CN2CC[C@]1(F)c1cc(Cl)cnc1O[C@H]1C[C@@H](C(=O)O)N(C1)c1nc(nc3c1oc1ccccc13)CCCCCC2=O .
Return: 6.89
